Each recorded value in this set is attributed to patent US9169279B2.

- protocol-notes: Rat PK study: zoledronic acid in plasma after IV, oral gavage or intraduodenal dosing (LC/MS/MS)
- Format: in vivo
- measurement-setup: male, Sprague-Dawley, other: intraduodenal (ID, duodenal cannula), 5 mg/kg, read-out: Average plasma concentration of 3 rats
property-measured: concentration at 24 hour (ng/mL)
Number in ng/mL, nothing else.

What value of concentration at 24 hour has been reported for the following compound? O=P(O)(O)C(O)(Cn1ccnc1)P(=O)(O)O [Zoledronic acid]
0

---

- measurement-setup: room temperature
property-measured: Aqueous solubility, Conc. mg/mL (mg/mL)
Number in mg/mL, nothing else.

Some solved cases for reference:
> print(dat)
                                   compound  reading
1  NCCCC[C@H](N)C(=O)O.O.O.O=P(O)(O)C(O)(Cn1ccnc1)P(=O)(O)O [ZA: L-Lysine dihydrate]     8.22
2  NCCCCC(N)C(=O)O.O.O=P(O)(O)C(O)(Cn1ccnc1)P(=O)(O)O [ZA: DL-Lysine monohydrate]     13.9
3  O.O=P(O)(O)C(O)(Cn1ccnc1)P(=O)(O)O [ZA monohydrate]     1.57

From here, focus on the item given below.
What value of Aqueous solubility, Conc. mg/mL has been reported for the following compound? NCCCCC(N)C(=O)O.O.O.O=P(O)(O)C(O)(Cn1ccnc1)P(=O)(O)O [ZA: DL-Lysine dihydrate]
6.85

---

- protocol-notes: Dog PK study: zoledronic acid in serum after IV or oral capsule dosing, enteric or non-enteric coated, with or without excess coformer (LC/MS/MS)
- Format: in vivo, Beagle dogs
- measurement-setup: beagle, po, 56 mg, Leg 7, 56.0 mg, enteric coated capsule, PO, 8 h, read-out: Average serum concentration of 5 dogs
property-measured: concentration at 8 h

What value of concentration at 8 h has been reported for the following compound? O=P(O)(O)C(O)(Cn1ccnc1)P(=O)(O)O [Zoledronic acid monohydrate]
4.57 ng/mL

---

- protocol-notes: Dog PK study: zoledronic acid in serum after IV or oral capsule dosing, enteric or non-enteric coated, with or without excess coformer (LC/MS/MS)
- Format: in vivo, Beagle dogs
- measurement-setup: beagle, iv, 0.05 mg/kg, zoledronic acid in dog serum, Leg 1, IV 0.05 mg/kg, saline solution, Time 1.5 hour, read-out: Average serum concentration of 5 dogs
property-measured: concentration at 1.5 hour
Remember to put the unit after the number in your answer.

What value of concentration at 1.5 hour has been reported for the following compound? O=P(O)(O)C(O)(Cn1ccnc1)P(=O)(O)O
30.4 ng/mL

---

- protocol-notes: Dog PK study: zoledronic acid in serum after IV or oral capsule dosing, enteric or non-enteric coated, with or without excess coformer (LC/MS/MS)
- Type: in vivo, Beagle dogs
- measurement-setup: beagle, intravenous, 0.12 mg/kg, Leg 18, 15 min IV infusion 0.12 mg/kg, saline solution, Time 4 hour, read-out: Average serum concentration of 5 dogs
property-measured: concentration at 4 h
Remember to put the unit after the number in your answer.

What value of concentration at 4 h has been reported for the following compound? O=P(O)(O)C(O)(Cn1ccnc1)P(=O)(O)O
9.14 ng/mL

---

- protocol-notes: Dog PK study: zoledronic acid in serum after IV or oral capsule dosing, enteric or non-enteric coated, with or without excess coformer (LC/MS/MS)
- Type: in vivo, Beagle dogs
- measurement-setup: beagle, iv, 0.05 mg/kg, zoledronic acid in dog serum, Leg 1, IV 0.05 mg/kg, saline solution, Time 24 hour, read-out: Average serum concentration of 5 dogs
property-measured: concentration at 24 hour (ng/mL)
Number in ng/mL, nothing else.

What value of concentration at 24 hour has been reported for the following molecule? O=P(O)(O)C(O)(Cn1ccnc1)P(=O)(O)O
0

---

- protocol-notes: Dog PK study: zoledronic acid in serum after IV or oral capsule dosing, enteric or non-enteric coated, with or without excess coformer (LC/MS/MS)
- Assay type: in vivo, Beagle dogs
- measurement-setup: beagle, po, Leg 24, 64.0 mg with 374.8 mg L-lysine HCl, gelatin capsule, PO, 1.5 h, read-out: Average serum concentration of 5 dogs
property-measured: concentration at 1.5 h (ng/mL)
Number in ng/mL, nothing else.

What value of concentration at 1.5 h has been reported for the following compound? O=P(O)(O)C(O)(Cn1ccnc1)P(=O)(O)O
163

---

- protocol-notes: Rat PK study: zoledronic acid in plasma after IV, oral gavage or intraduodenal dosing (LC/MS/MS)
- Format: in vivo
- measurement-setup: male, Sprague-Dawley, po, 5 mg/kg, read-out: Average plasma concentration of 3 rats
property-measured: concentration at 8 hour (ng/mL)
Number in ng/mL, nothing else.

What value of concentration at 8 hour has been reported for the following compound? O=P(O)(O)C(O)(Cn1ccnc1)P(=O)(O)O
2

---

- protocol-notes: Rat PK study: zoledronic acid in plasma after IV, oral gavage or intraduodenal dosing (LC/MS/MS)
- Format: in vivo
- measurement-setup: male, Sprague-Dawley, iv, 0.5 mg/kg, read-out: Average plasma concentration of 3 rats
property-measured: concentration at 1 hour (ng/mL)
Number in ng/mL, nothing else.

What value of concentration at 1 hour has been reported for the following molecule? O=P(O)(O)C(O)(Cn1ccnc1)P(=O)(O)O
404

---

- protocol-notes: Dog PK study: zoledronic acid in serum after IV or oral capsule dosing, enteric or non-enteric coated, with or without excess coformer (LC/MS/MS)
- Format: in vivo, Beagle dogs
- measurement-setup: beagle, intravenous, 0.12 mg/kg, Leg 18, 15 min IV infusion 0.12 mg/kg, saline solution, Time 24 hour, read-out: Average serum concentration of 5 dogs
- Source text: This can be attributed to the fact that both animals have historically been used in the safety evaluation and PK screening studies and are recommended by appropriate regulatory agencies. […] Additional tests included ID administration in rats and administration of enteric coated capsules in dogs. USA. Some animals have surgical catheters (jugular vein and intraduodenum) were implanted to the animals prior to the studies. […]
property-measured: concentration at 24 h (ng/mL)
Number in ng/mL, nothing else.

What value of concentration at 24 h has been reported for the following compound? O=P(O)(O)C(O)(Cn1ccnc1)P(=O)(O)O
1.21

---

- protocol-notes: Dog PK study: zoledronic acid in serum after IV or oral capsule dosing, enteric or non-enteric coated, with or without excess coformer (LC/MS/MS)
- Format: in vivo, Beagle dogs
- measurement-setup: beagle, iv, 0.12 mg/kg, Leg 38, 0.12 mg/kg IV, saline solution, 20 min, read-out: Average serum concentration of 4 dogs
property-measured: concentration at 20 min (ng/mL)
Number in ng/mL, nothing else.

What value of concentration at 20 min has been reported for the following compound? O=P(O)(O)C(O)(Cn1ccnc1)P(=O)(O)O
529

---

- protocol-notes: Rat PK study: zoledronic acid in plasma after IV, oral gavage or intraduodenal dosing (LC/MS/MS)
- Type: in vivo
- measurement-setup: male, Sprague-Dawley, other: intraduodenal (ID, duodenal cannula), 5 mg/kg, read-out: Average plasma concentration of 3 rats
property-measured: concentration at 1 hour (ng/mL)
Number in ng/mL, nothing else.

What value of concentration at 1 hour has been reported for the following molecule? O=P(O)(O)C(O)(Cn1ccnc1)P(=O)(O)O [Zoledronic acid]
47.4

---

- protocol-notes: Dog PK study: zoledronic acid in serum after IV or oral capsule dosing, enteric or non-enteric coated, with or without excess coformer (LC/MS/MS)
- Format: in vivo, Beagle dogs
- measurement-setup: beagle, iv, 0.183 mg/kg, Leg 13, 0.183 mg/kg IV, saline solution, 24 h, read-out: Average serum concentration of 5 dogs
- Source text: This can be attributed to the fact that both animals have historically been used in the safety evaluation and PK screening studies and are recommended by appropriate regulatory agencies. […] Additional tests included ID administration in rats and administration of enteric coated capsules in dogs. USA. Some animals have surgical catheters (jugular vein and intraduodenum) were implanted to the animals prior to the studies. […]
property-measured: concentration at 24 h (ng/mL)
Number in ng/mL, nothing else.

What value of concentration at 24 h has been reported for the following compound? O=P(O)(O)C(O)(Cn1ccnc1)P(=O)(O)O
3.84

---

- protocol-notes: Dog PK study: zoledronic acid in serum after IV or oral capsule dosing, enteric or non-enteric coated, with or without excess coformer (LC/MS/MS)
- Assay type: in vivo, Beagle dogs
- measurement-setup: beagle, intravenous, 0.12 mg/kg, Leg 18, 15 min IV infusion 0.12 mg/kg, saline solution, Time 0.0833 hour, read-out: Average serum concentration of 5 dogs
property-measured: concentration at 5 min (ng/mL)
Number in ng/mL, nothing else.

What value of concentration at 5 min has been reported for the following compound? O=P(O)(O)C(O)(Cn1ccnc1)P(=O)(O)O [Zoledronic acid]
309

---

- protocol-notes: Dog PK study: zoledronic acid in serum after IV or oral capsule dosing, enteric or non-enteric coated, with or without excess coformer (LC/MS/MS)
- Format: in vivo, Beagle dogs
- measurement-setup: beagle, iv, 0.183 mg/kg, Leg 13, 0.183 mg/kg IV, saline solution, 0.75 h, read-out: Average serum concentration of 5 dogs
property-measured: concentration at 0.75 h
Remember to put the unit after the number in your answer.

What value of concentration at 0.75 h has been reported for the following compound? O=P(O)(O)C(O)(Cn1ccnc1)P(=O)(O)O [Zoledronic acid]
343 ng/mL
